# Assay comment: gradient 5% acetonitrile 3 min, to 50% in 2 min, to 85% in 15 min, held 3 min, 100 µL/min
# Conditions used: column: Zorbax Extend-C18 2.1 x 50 mm; eluents: water / acetonitrile, 0.1% formic acid
Readout kind: RP-LC retention time (s)
Provide only the numeric value, understood in s.

stdin: Requested read-out: RP-LC retention time. Entry: Cc1ccc(N2CCN(C(=O)c3cn4cc(C)ccc4n3)CC2)cc1
stdout: 690

stdin: Form field: reported RP-LC retention time of CSc1ccccc1NC(=O)C(C)Cn1nc(-c2ccco2)ccc1=O (stereo not drawn)
stdout: 707

stdin: Please report the recorded RP-LC retention time for Cc1ccc2c(c1)N(C(=O)CCC(=O)NCCCN1CC(C)CC(C)C1)CC(C)O2 (stereo not drawn) .
stdout: 704

stdin: # input molecule: Cc1cc(C)n(-c2ccnc(N3CCC(C(=O)NCCN4CCOCC4)CC3)n2)n1 ; wanted: its RP-LC retention time
stdout: 607

stdin: Bench note: what RP-LC retention time did Cc1c(Cl)cccc1N1CCn2c1nc1c2c(=O)n(CC(=O)O)c(=O)n1C show?
stdout: 719

stdin: Can you share its RP-LC retention time? I mean this molecule: O=C(C1CC1)N1CCC(c2noc(-c3ccccc3)n2)C1 (stereo not drawn)
stdout: 956

stdin: Consider the molecule O=C(CSc1n[nH]c(-c2ccccc2)n1)NC1CCCCC1 and give its measured RP-LC retention time.
stdout: 784

stdin: What value of RP-LC retention time has been recorded for this entry: COc1ccc(C2(C(=O)N3CC(c4nc(CCOCC5CCOCC5)no4)C3)CC2)cc1
stdout: 812

stdin: Any idea what its RP-LC retention time is? The molecule is CCCn1cc(-c2nc(-c3ccncc3)no2)c(=O)c2cc(F)ccc21
stdout: 728

stdin: Reported RP-LC retention time for O=C(CCN(CC1CCCO1)C(=O)c1cccc(Br)c1)N1CCNCC1 (stereo not drawn) : what is it?
stdout: 610

stdin: Name the reported RP-LC retention time value associated with the molecule O=c1c(O[C@@H]2OC([C@H](O)CO)[C@H](O)[C@H]2O)c(-c2ccc(O)c(O)c2)oc2cc(O)cc(O)c12 (stereo partly drawn)
stdout: 641

stdin: Name the recorded RP-LC retention time for CCOC(=O)c1cc(C2CC2)nc2c1c(=O)n(Cc1ccccc1F)c(=O)n2C .
stdout: 1140

stdin: Returns the measured RP-LC retention time for the input molecule. Input: CC(C)n1cnc2cc(CNC(=O)Cc3cccs3)ccc21
stdout: 600

stdin: Given the entry Cc1cc(C)cc(NC(=O)C2CCCN(S(=O)(=O)c3c[nH]c(C(=O)N4CCCC4)c3)C2)c1 (stereo not drawn) , report its measured RP-LC retention time.
stdout: 874

stdin: Name the recorded RP-LC retention time for CCc1nnc([C@@H]2CC(F)(F)CN2S(=O)(=O)c2ccc(C)cc2)o1 .
stdout: 696

stdin: RP-LC retention time for COc1ccc(Cl)cc1NS(=O)(=O)c1cc(-c2cc(C(F)(F)F)[nH]n2)sc1C ?
stdout: 1060

stdin: If you can, please state the reported RP-LC retention time value of CCCN1CCn2cc(S(=O)(=O)NCc3ccc(OC)cc3)cc2C1=O .
stdout: 990

stdin: Would you kindly share the measured RP-LC retention time for O=C(Nc1c(-c2ccccc2)nc2ccccn12)c1ccccc1F ?
stdout: 638

stdin: What value of RP-LC retention time has been recorded for this entry: Cc1nn(-c2nc3ccccc3[nH]2)c2c1C(=O)CC(c1ccccc1)C2 (stereo not drawn)
stdout: 990

stdin: Please look up its RP-LC retention time: CCOc1cccc(-c2noc(Cc3nnc(-c4cccc(Br)c4)o3)n2)c1
stdout: 1160

stdin: Recorded RP-LC retention time of O=C(Nc1nnc(SCc2cccnc2)s1)c1cc(C2CC2)on1 , please.
stdout: 598

stdin: Data request, read-out RP-LC retention time, for CC(O)CNC(=O)C1CCN(c2ccc(Sc3ccc(C(C)C)cc3)nn2)CC1 (stereo not drawn)
stdout: 704

stdin: Suppose we examine the molecule COc1ccc(S(=O)(=O)Nc2cc(-c3cn4ccc(C)cc4n3)ccc2C)cc1OC ; what RP-LC retention time value has been reported?
stdout: 652

stdin: Item under review: O=C(NC1CC1)c1ccc(OCC2CCCN2C(=O)c2ccccc2F)cc1 (stereo not drawn) . Reported RP-LC retention time?
stdout: 751

stdin: Query: RP-LC retention time; subject: Cc1cccc(C(=O)NC2CCN(c3nnc4ccccn34)CC2)c1
stdout: 645

stdin: Quick one: RP-LC retention time for CCOC(=O)COc1ccccc1C1CC(c2cccs2)=NN1C(=O)c1ccco1 (stereo not drawn) ?
stdout: 941

stdin: // query RP-LC retention time value for entry CCn1cnc2cc(-c3noc(C(NC(=O)c4ccco4)C(C)C)n3)ccc21 (stereo not drawn)
stdout: 666

stdin: Fill blank: measured RP-LC retention time of the molecule CCOC(=O)c1nc(Nc2ccc(C)cc2C)c2ccccc2n1 is ____.
stdout: 831

====

# Assay comment: gradient 5% acetonitrile 3 min, to 50% in 2 min, to 85% in 15 min, held 3 min, 100 µL/min
# Conditions used: column: Zorbax Extend-C18 2.1 x 50 mm; eluents: water / acetonitrile, 0.1% formic acid
Quick rule for you: RP-LC retention time under 800 s gets Satisfied, anything else gets Not satisfied.

stdin: Consider CCn1c(=O)c2ccccc2n(Cc2nc(-c3ccc(Cl)cc3)no2)c1=O . Does its RP-LC retention time lie strictly below 800 s?
stdout: Not satisfied

stdin: RP-LC retention time under 800 s? Item: CCN(CC)C(=O)c1ccc2c(c1)N(CC(=O)NC1CCCCCCC1)C(=O)CS2
stdout: Not satisfied

stdin: I wonder whether O=C(NCc1ccc2c(c1)OCO2)C1COC2(CCN(C(=O)C3CC3)CC2)N1C(=O)c1ccccc1 (stereo unspecified) has RP-LC retention time below 800 s. Can you tell?
stdout: Satisfied

stdin: Say whether its RP-LC retention time is strictly beneath 800 s. Entry: Cc1ccc(C)c2sc(OC3CCN(C(=O)c4ccc(=O)n(C)n4)CC3)nc12
stdout: Not satisfied

stdin: Here's an entry: CCCN1C(=O)COc2ccc(-c3noc(C(C)NC(=O)c4ccccc4)n3)cc21 (stereo unspecified) . Is its RP-LC retention time below 800 s?
stdout: Not satisfied

stdin: Problem: For the compound Cc1cccc(CNC(=O)C2=C3CCCN3c3ccccc3S2(=O)=O)c1 , is RP-LC retention time under 800 s?
stdout: Not satisfied

stdin: Please check: RP-LC retention time for O=S(=O)(c1ccccc1Cl)N1CC(COc2ccncc2)C2(CCOCC2)C1 (stereo unspecified) , strictly under 800 s or not?
stdout: Satisfied

stdin: Hi there! Is RP-LC retention time for O=C(Nc1cnc(-c2ccccc2)nc1)C1CCC1 below 800 s, do you know?
stdout: Not satisfied

stdin: Problem: For the compound O=C(Nc1ccc(N2CCOCC2)nc1)NC1CCCC1 , is RP-LC retention time under 800 s?
stdout: Satisfied

stdin: Is RP-LC retention time of CCOC(=O)CNC(=O)Nc1ccc2nc(N3CCOCC3)cc(C)c2c1 strictly below 800 s?
stdout: Satisfied

stdin: RP-LC retention time under 800 s? Item: O=C(Cn1c(=O)c2cc(C3CC3)nn2c2ncccc21)NCc1ccccc1Cl
stdout: Satisfied

stdin: Determine if Cc1ccc(-c2noc(-c3sccc3NC(=O)C3(c4ccccc4)CC3)n2)cc1 shows RP-LC retention time strictly lower than 800 s.
stdout: Not satisfied

stdin: Strictly below 800 s in RP-LC retention time? CCC1CCCCN1C(=O)c1cnc2nc(C)ccc2c1Nc1ccc(S(N)(=O)=O)cc1 (stereo unspecified)
stdout: Satisfied

stdin: Hello, is RP-LC retention time of the following compound strictly smaller than 800 s? Nc1nc(Cl)nc2c1ncn2[C@@H]1O[C@H](CO)[C@H](O)C1O (stereo partly specified)
stdout: Satisfied

stdin: Consider the compound Cc1ccc(-c2cc3c4nnc(SCC(=O)Nc5ccc(F)cc5Cl)n4ccn3n2)cc1C . Is its RP-LC retention time strictly less than 800 s?
stdout: Not satisfied

stdin: Given the entry O=C([C@H]1C[C@@H](F)CN1S(=O)(=O)c1ccc(Cl)cc1)N1CCOCC1 , would its reported RP-LC retention time be below 800 s?
stdout: Satisfied

stdin: Is RP-LC retention time of Cc1nc2cc(-c3noc(-c4ccccc4C(F)(F)F)n3)ccc2o1 strictly below 800 s?
stdout: Not satisfied

stdin: Is RP-LC retention time of Brc1ccc(-c2noc(Cc3nc(-c4ccc5c(c4)OCO5)cs3)n2)cc1 strictly below 800 s?
stdout: Not satisfied

stdin: is_below(RP-LC retention time, 800 s) for O=C(NCc1ccc(Br)cc1)C1CCCN(c2cnc3nccnc3c2)C1 (stereo unspecified) ?
stdout: Satisfied

stdin: Regarding CCc1nc2c(c(=O)n1CC(=O)NCc1ccc(C)c(C)c1)CN(Cc1ccccc1)CC2 , kindly confirm whether its RP-LC retention time is beneath 800 s.
stdout: Satisfied

stdin: Identify whether the compound CC(Oc1ccccc1)c1nc(-c2ccc3c(c2)nnn3CCC(=O)N2CCCC2)no1 (stereo unspecified) records RP-LC retention time below 800 s.
stdout: Not satisfied

stdin: Quick check: RP-LC retention time of OC(CN1CCN(c2ncccn2)CC1)c1ccc(Br)cc1 (stereo unspecified) under 800 s?
stdout: Satisfied

stdin: Does this compound meet the criterion RP-LC retention time < 800 s? CCn1nccc1-c1csc(S(=O)(=O)NCc2cccs2)c1
stdout: Not satisfied

stdin: RP-LC retention time under 800 s? Item: CCNC(=O)N1CC(n2cc(C(=O)NCCCOC)nn2)C1
stdout: Satisfied

stdin: Record CCCS(=O)(=O)N1CCCN(S(=O)(=O)c2ccccc2)CCC(=O)NCC1 : is its RP-LC retention time strictly below 800 s?
stdout: Satisfied

stdin: Item COc1ccc(C(=O)N2CCC(c3nc4cccnc4n3C)C2)cc1F (stereo unspecified) : RP-LC retention time beneath 800 s, strictly?
stdout: Satisfied

stdin: Take the compound Cc1ccc(CNC(=O)C2(C)CCCN(C(=O)Nc3ccccc3Cl)C2)cc1 (stereo unspecified) and say whether its RP-LC retention time is less than 800 s.
stdout: Not satisfied

stdin: Does the reported RP-LC retention time of CCOC(=O)N1CCN(C(=O)Nc2cccc(Cl)c2)CC1 stay below 800 s?
stdout: Satisfied

stdin: A record lists Cc1[nH]c(=O)[nH]c(=O)c1CCc1nnc(SCC(=O)NCc2ccco2)o1 . Is its RP-LC retention time below 800 s?
stdout: Satisfied

Source of measurements: the METLIN SMRT retention time set (Domingo-Almenara et al. 2019)
